- test_target: T1, CRBN, Q96SW2;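 note: pooled lentiviral library of zinc finger degron-EGFP fusions in mCherry-positive Jurkat cells, FACS-sorted after compound exposure, with degron abundance counted by next-generation sequencing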
- T1 chain: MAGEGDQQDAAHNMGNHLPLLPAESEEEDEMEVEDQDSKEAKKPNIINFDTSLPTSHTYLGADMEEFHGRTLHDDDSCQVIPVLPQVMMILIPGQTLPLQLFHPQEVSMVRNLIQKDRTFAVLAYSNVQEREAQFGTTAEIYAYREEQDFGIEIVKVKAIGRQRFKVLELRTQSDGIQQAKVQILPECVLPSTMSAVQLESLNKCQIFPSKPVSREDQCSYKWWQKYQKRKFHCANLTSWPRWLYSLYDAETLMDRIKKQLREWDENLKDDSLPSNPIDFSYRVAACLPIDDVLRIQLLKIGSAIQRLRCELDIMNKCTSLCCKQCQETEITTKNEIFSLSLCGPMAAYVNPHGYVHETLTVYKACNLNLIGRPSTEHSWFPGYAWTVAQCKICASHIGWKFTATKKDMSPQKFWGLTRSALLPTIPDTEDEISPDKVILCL
- assay_notes: log2 fold change of degron read counts, EGFP-low vs EGFP+ sorted cells (limma voom), compound-induced degradation; higher = more compound-induced degradation of the degron-EGFP fusion; degrons are variants of IKZF1/3 zinc finger 2; compound dose not given here
- condition_info: Jurkat; 18 h; compound: compound 33 (diphenyl IMiD analogue)
Over roughly 8,300 sequences, “log2 fold change of degron read counts, EGFP-low vs EGFP+ sorted cells (limma voom), compound-induced degradation” has its median near -1.1; the highest 2% begin near 3.2. This is one part of a sample in which the highest values are shown more often than they occur.
Answer not met if log2 fold change of degron read counts is under -0.1, and met if it is -0.1 or more.

seq_string | class_label
FACNVCGAEFTQKGNLLRHIKL [46F_47A_49N_50V_52G_53A_54E_55F_67L_, Q9UKT9] | not met
FQCPICGRGFTQKGNLLRHIKL [46F_47Q_49P_50I_52G_53R_54G_55F_67L_, Q9UKT9] | not met
LQCEICGFDCTQKGNLLRHIKL [46L_47Q_49E_50I_52G_53F_54D_55C_67L_, Q9UKT9] | not met
FMCNICGAPFTQKGNLLRHIKL [46F_47M_49N_50I_52G_53A_54P_55F_67L_, Q9UKT9] | met
FDCNICGAPFTQKGNLLRHIKL [46F_47D_49N_50I_52G_53A_54P_55F_67L_, Q9UKT9] | not met
FKCNICGAPFTQKGNLLRHIKL [46F_47K_49N_50I_52G_53A_54P_55F_67L_, Q9UKT9] | not met
FFCNICGAPFTQKGNLLRHIKL [46F_47F_49N_50I_52G_53A_54P_55F_67L_, Q9UKT9] | met
